# System: Human immunodeficiency virus 1
# protocol.notes: Antiviral activity against wild type HIV1 assessed as inhibitory effect on virus producing cells at 10 uM by cell based inhibition assay
# Type: functional
Classification field: enter 1 for inhibition at 10 µM values not below 80%, 0 for values below it.

[
  {
    "compound": "CC(C)CN(C[C@@H](O)[C@H](Cc1ccccc1)NC(=O)Cc1cc(=O)oc2cc(O)ccc12)S(=O)(=O)c1ccc([N+](=O)[O-])cc1",
    "qualitative.label": 0
  },
  {
    "compound": "COc1ccc(S(=O)(=O)N(CC(C)C)C[C@@H](O)[C@H](Cc2ccccc2)NC(=O)c2ccc3oc(=O)ccc3c2)cc1",
    "qualitative.label": 1
  },
  {
    "compound": "COc1ccc(S(=O)(=O)N(CC(C)C)C[C@@H](O)[C@H](Cc2ccccc2)NCc2cc(=O)oc3cc(O)ccc23)cc1",
    "qualitative.label": 1
  },
  {
    "compound": "CC(C)CN(C[C@@H](O)[C@H](Cc1ccccc1)NCc1cc(=O)oc2cc(O)ccc12)S(=O)(=O)c1ccc([N+](=O)[O-])cc1",
    "qualitative.label": 0
  },
  {
    "compound": "CC(C)CN(C[C@@H](O)[C@H](Cc1ccccc1)NC(=O)O[C@H]1CO[C@H]2OCC[C@H]21)S(=O)(=O)c1ccc(N)cc1",
    "qualitative.label": 0
  },
  {
    "compound": "CC(C)CN(C[C@@H](O)[C@H](Cc1ccccc1)NC(=O)c1ccc2oc(=O)ccc2c1)S(=O)(=O)c1ccc([N+](=O)[O-])cc1",
    "qualitative.label": 1
  },
  {
    "compound": "O=C1Nc2ccc(Cl)cc2[C@@](C#CC2CC2)(C(F)(F)F)O1 [EFAVIRENZ]",
    "qualitative.label": 1
  },
  {
    "compound": "CC(C)CN(C[C@@H](O)[C@H](Cc1ccccc1)NC(=O)c1ccc2oc(=O)ccc2c1)S(=O)(=O)c1ccc(N)cc1",
    "qualitative.label": 1
  },
  {
    "compound": "CC(C)CN(C[C@@H](O)[C@H](Cc1ccccc1)NC(=O)c1cc2ccc(O)cc2oc1=O)S(=O)(=O)c1ccc([N+](=O)[O-])cc1",
    "qualitative.label": 0
  },
  {
    "compound": "COc1ccc(S(=O)(=O)N(CC(C)C)C[C@@H](O)[C@H](Cc2ccccc2)NC(=O)Cc2cc(=O)oc3cc(O)ccc23)cc1",
    "qualitative.label": 1
  },
  {
    "compound": "CC(C)CN(C[C@@H](O)[C@H](Cc1ccccc1)NC(=O)Cc1cc(=O)oc2cc(O)ccc12)S(=O)(=O)c1ccc(N)cc1",
    "qualitative.label": 0
  }
]

* * *

Measured pIC50 accompanies every entry in the list below.
# target.entity: UniProtKB Q72874
# protocol.notes: Inhibition of recombinant HIV1 protease measured assessed as hydrolysis of fluorogenic substrate by FRET assay
pIC50: −log10 of the molar value.

[
  {
    "molecule.smiles": "CC(C)CN(C[C@@H](O)[C@H](Cc1ccccc1)NC(=O)c1cc2ccccc2oc1=O)S(=O)(=O)c1ccc([N+](=O)[O-])cc1",
    "pIC50": 6.53
  },
  {
    "molecule.smiles": "CC(C)CN(C[C@@H](O)[C@H](Cc1ccccc1)NCc1cc(=O)oc2cc(O)ccc12)S(=O)(=O)c1ccc([N+](=O)[O-])cc1",
    "pIC50": 6.85
  },
  {
    "molecule.smiles": "COc1ccc2cc(C(=O)N[C@@H](Cc3ccccc3)[C@H](O)CN(CC(C)C)S(=O)(=O)c3ccc([N+](=O)[O-])cc3)c(=O)oc2c1",
    "pIC50": 6.66
  },
  {
    "molecule.smiles": "COc1ccc2c(CC(=O)N[C@@H](Cc3ccccc3)[C@H](O)CN(CC(C)C)S(=O)(=O)c3ccc([N+](=O)[O-])cc3)cc(=O)oc2c1",
    "pIC50": 7.25
  },
  {
    "molecule.smiles": "CC(C)CN(C[C@@H](O)[C@H](Cc1ccccc1)NC(=O)Oc1c2occc2cc2ccc(=O)oc12)S(=O)(=O)c1ccc([N+](=O)[O-])cc1",
    "pIC50": 5.82
  },
  {
    "molecule.smiles": "COc1ccc(S(=O)(=O)N(CC(C)C)C[C@@H](O)[C@H](Cc2ccccc2)NC(=O)Cc2cc(=O)oc3cc(N(C)C)ccc23)cc1",
    "pIC50": 6.68
  },
  {
    "molecule.smiles": "COc1ccc(S(=O)(=O)N(CC(C)C)C[C@@H](O)[C@H](Cc2ccccc2)NC(=O)Oc2ccc3c(C)cc(=O)oc3c2)cc1",
    "pIC50": 6.80
  },
  {
    "molecule.smiles": "CC(C)CN(C[C@@H](O)[C@H](Cc1ccccc1)NC(=O)c1ccc2oc(=O)ccc2c1)S(=O)(=O)c1ccc(N)cc1",
    "pIC50": 9.40
  },
  {
    "molecule.smiles": "COc1ccc(S(=O)(=O)N(CC(C)C)C[C@@H](O)[C@H](Cc2ccccc2)NC(=O)c2cc3ccccc3oc2=O)cc1",
    "pIC50": 7.14
  },
  {
    "molecule.smiles": "CC(C)CN(C[C@@H](O)[C@H](Cc1ccccc1)NC(=O)c1ccc2oc(=O)ccc2c1)S(=O)(=O)c1ccc([N+](=O)[O-])cc1",
    "pIC50": 8.59
  },
  {
    "molecule.smiles": "CC(C)CN(C[C@@H](O)[C@H](Cc1ccccc1)NC(=O)c1cc2ccc(O)cc2oc1=O)S(=O)(=O)c1ccc([N+](=O)[O-])cc1",
    "pIC50": 7.21
  },
  {
    "molecule.smiles": "CC(C)CN(C[C@@H](O)[C@H](Cc1ccccc1)NC(=O)c1cc2ccc(O)cc2oc1=O)S(=O)(=O)c1ccc(N)cc1",
    "pIC50": 7.56
  },
  {
    "molecule.smiles": "COc1ccc(S(=O)(=O)N(CC(C)C)C[C@@H](O)[C@H](Cc2ccccc2)NC(=O)Cc2cc(=O)oc3cc(OC)ccc23)cc1",
    "pIC50": 7.81
  },
  {
    "molecule.smiles": "CC(C)CN(C[C@@H](O)[C@H](Cc1ccccc1)NC(=O)Cc1cc(=O)oc2cc(N(C)C)ccc12)S(=O)(=O)c1ccc(N)cc1",
    "pIC50": 7.12
  },
  {
    "molecule.smiles": "CC(C)CN(C[C@@H](O)[C@H](Cc1ccccc1)NC(=O)c1cc2ccccc2oc1=O)S(=O)(=O)c1ccc(N)cc1",
    "pIC50": 6.81
  },
  {
    "molecule.smiles": "COc1ccc(S(=O)(=O)N(CC(C)C)C[C@@H](O)[C@H](Cc2ccccc2)NC(=O)c2cc3ccc(O)cc3oc2=O)cc1",
    "pIC50": 7.40
  },
  {
    "molecule.smiles": "Cc1cc(=O)oc2cc(OC(=O)N[C@@H](Cc3ccccc3)[C@H](O)CN(CC(C)C)S(=O)(=O)c3ccc([N+](=O)[O-])cc3)ccc12",
    "pIC50": 5.99
  },
  {
    "molecule.smiles": "COc1ccc(S(=O)(=O)N(CC(C)C)C[C@@H](O)[C@H](Cc2ccccc2)NC(=O)Oc2c3occc3cc3ccc(=O)oc23)cc1",
    "pIC50": 6.92
  },
  {
    "molecule.smiles": "CC(C)CN(C[C@@H](O)[C@H](Cc1ccccc1)NC(=O)Cc1cc(=O)oc2cc(O)ccc12)S(=O)(=O)c1ccc(N)cc1",
    "pIC50": 7.42
  },
  {
    "molecule.smiles": "COc1ccc2c(CC(=O)N[C@@H](Cc3ccccc3)[C@H](O)CN(CC(C)C)S(=O)(=O)c3ccc(N)cc3)cc(=O)oc2c1",
    "pIC50": 7.81
  },
  {
    "molecule.smiles": "CC(C)CN(C[C@@H](O)[C@H](Cc1ccccc1)NC(=O)Cc1cc(=O)oc2cc(O)ccc12)S(=O)(=O)c1ccc([N+](=O)[O-])cc1",
    "pIC50": 7.95
  },
  {
    "molecule.smiles": "COc1ccc2cc(C(=O)N[C@@H](Cc3ccccc3)[C@H](O)CN(CC(C)C)S(=O)(=O)c3ccc(N)cc3)c(=O)oc2c1",
    "pIC50": 6.99
  },
  {
    "molecule.smiles": "COc1ccc(S(=O)(=O)N(CC(C)C)C[C@@H](O)[C@H](Cc2ccccc2)NCc2cc(=O)oc3cc(O)ccc23)cc1",
    "pIC50": 7.28
  },
  {
    "molecule.smiles": "COc1ccc(S(=O)(=O)N(CC(C)C)C[C@@H](O)[C@H](Cc2ccccc2)NC(=O)c2cc3ccc(OC)cc3oc2=O)cc1",
    "pIC50": 7.33
  },
  {
    "molecule.smiles": "CC(C)CN(C[C@@H](O)[C@H](Cc1ccccc1)NC(=O)Cc1cc(=O)oc2cc(N(C)C)ccc12)S(=O)(=O)c1ccc([N+](=O)[O-])cc1",
    "pIC50": 6.56
  },
  {
    "molecule.smiles": "COc1ccc(S(=O)(=O)N(CC(C)C)C[C@@H](O)[C@H](Cc2ccccc2)NC(=O)Cc2cc(=O)oc3cc(O)ccc23)cc1",
    "pIC50": 8.79
  },
  {
    "molecule.smiles": "COc1ccc(S(=O)(=O)N(CC(C)C)C[C@@H](O)[C@H](Cc2ccccc2)NC(=O)c2ccc3oc(=O)ccc3c2)cc1",
    "pIC50": 8.74
  }
]
